B1: HDV Ribozyme (parent)
chain: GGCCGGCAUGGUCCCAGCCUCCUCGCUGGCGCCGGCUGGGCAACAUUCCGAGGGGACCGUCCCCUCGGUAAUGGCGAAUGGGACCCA

# Variants of: B1
# assay.notes: self-cleavage, relative activity (ratio to wild type); higher = more cleavage; co-transcriptional
Note to self: class labels come from recorded self-cleavage, ranges listed here: interval 1 = under 0.08, interval 2 = from 0.08 up to 0.6, interval 3 = 0.6 and over

Observe how each entry below is paired with its result.
INSERT INTO assay_data (variant_description, class_name) VALUES
  ('G73U G80A', 'interval 2'),
  ('C21G U23G', 'interval 1'),
  ('G5A G53A', 'interval 2'),
  ('C63A U69A', 'interval 3'),
  ('C3U C41A', 'interval 3'),
  ('G50C C86A', 'interval 3'),
  ('G38A C62A', 'interval 1'),
  ('G5C U23A', 'interval 1');

Query: Where would C57G A71U land among the classes by reported self-cleavage?
Response: interval 3

Query: Record G2C G54U — which class?
Response: interval 1

Query: # classify by self-cleavage band: C19U G25A
Response: interval 1

Query: Bin? G25C A71C
Response: interval 1

Query: Record A8G C21G — which class?
Response: interval 1

Query: Please let me know in which category the item U69C G74U belongs.
Response: interval 2

Query: Place this variant in its band: G35U C84U
Response: interval 2

Values were extracted from the RNAGym collection of RNA variant scans (doi:10.7554/elife.80360).
